Origin of measurements: patent US20220056137A1

# pKd listing for each entry below
TARGET OF ASSAY: T1, cyno PD-L1 (cyno)
T1 construct: Soluble analyte in BLI
EXPERIMENT: BLI (Octet), antibody on AHC biosensor, cyno PD-L1 as analyte
Convention used: pKd is expressed as -log10 of the molar concentration.

INSERT INTO results (binder, number) VALUES
  ('antibody A8 (antibody, V domains shown, Tested as full-length mAb made in CHO cells; also called L8H8) VH: QVQLVQSGAEVKKPGASVKVSCKASGYTFTSYGISWVRQAPGQGLEWMGWISAYNGSTNYAQKLQGRVTMTTDTSTSTAYMELRSLRSDDTAVFYCARDDRIAVADYYYYFGMDVWGQGTTVTVSS VL: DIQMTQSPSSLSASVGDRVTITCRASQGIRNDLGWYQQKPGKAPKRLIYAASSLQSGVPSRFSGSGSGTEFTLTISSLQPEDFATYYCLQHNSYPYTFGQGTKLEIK', 7.72),
  ('antibody A13 (antibody, V domains shown, Tested as full-length mAb made in CHO cells; also called L13H13) VH: QVQLQESGPGLVKPSETLSLTCTVSGGSISSYYWSWIRQPPGKGLEWIGYIHYSGSTKYNPSLKSRVTISLDTSKNQFSLKLSSVTAADTAVYYCARDRGIGAFDIWGQGTMVTVSS VL: EIVMTQSPATLSLSPGERATLSCRASQSVSSSYLSWYQQKPGQAPRLLIYGASTRATGIPARFSGSGSGTDFTLTISSLQPEDFAVYYCQQDYNLITFGQGTRLEIK', 7.00);

Proceed to the following item.
(Q) Fill blank: measured pKd of the binder antibody A1 (antibody, V domains shown, Tested as full-length mAb made in CHO cells; also called L1H1) VH: QVQLVQSGAEVKKPGASVKVSCKASGFTFTSYDINWVRQATGQGLEWMGWMHPNSGITGYAQKFQGRVTMTRNTSISTAYMELSSLSSEDTAVYFCARYYYVSGSYDYWGQGTLVTVSS VL: EIVMTQSPATLSLSPGERATLSCWASQSVSSSYLSWYQQKPGQAPRLLIYGASTRATGIPARFSGSGSGTDFTLTISSLQPEDFAVYYCQQDYNLPYTFGQGTKLEIK is ____.
(A) 9.51
